Assay: Acute toxicity test by oral administration
Assay type: in vivo
Conditions: mouse, in vivo, po
VALUE_TYPE: LD50 (mg/kg)

>>> df
                        smiles_string  value_type  value_observed
0  O=C(CSCCO)NCCCOc1cccc(CN2CCCCC2)c1        LD50            2380

Every entry's value here was drawn from patent US5192774A.
